# testSystem: BCL-2 (Homo sapiens, UniProt P10415)
# Sequence (P10415 whole entry): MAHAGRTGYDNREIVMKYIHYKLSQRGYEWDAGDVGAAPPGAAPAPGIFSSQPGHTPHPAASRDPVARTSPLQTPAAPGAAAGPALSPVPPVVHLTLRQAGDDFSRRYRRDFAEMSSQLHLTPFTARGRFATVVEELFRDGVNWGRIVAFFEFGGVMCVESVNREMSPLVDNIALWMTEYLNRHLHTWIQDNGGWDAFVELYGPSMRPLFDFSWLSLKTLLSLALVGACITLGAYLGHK
# procedureSummary: HTRF BCL-2/BAK assay (Cisbio)
# conditionSummary: recombinant human Tag1-BCL-2 2 nM, Tag2-BAK 10 nM
measurementName: IC50

Recorded results for 2 molecules are shown here.
Cc1cccc2c1CCCCC2N1CCN(c2ccc(C(=O)NS(=O)(=O)c3ccc(NCC4CCOCC4)c([N+](=O)[O-])c3)c(Oc3cnc4[nH]ccc4c3)c2)CC1 (stereo not drawn)
< 20 nM
O=C(NS(=O)(=O)c1ccc(NCC2CCOCC2)c([N+](=O)[O-])c1)c1ccc(N2CCN([C@@H]3CCCCc4c(Br)cccc43)CC2)cc1Oc1cnc2[nH]ccc2c1
< 20 nM

Ask: I would be grateful if you could share the reported IC50 for O=C(NS(=O)(=O)c1cccc([N+](=O)[O-])c1)c1ccc(N2CCN(C3CCCc4ccccc43)CC2)cc1Oc1cnc2[nH]ccc2c1 (stereo not drawn) .
Reply: 200 to 2000 nM

---

# testSystem: CYP2C9 (Homo sapiens, UniProt P11712)
# Construct: from tissue; host or cells: human liver microsomes
# Sequence (P11712 whole entry): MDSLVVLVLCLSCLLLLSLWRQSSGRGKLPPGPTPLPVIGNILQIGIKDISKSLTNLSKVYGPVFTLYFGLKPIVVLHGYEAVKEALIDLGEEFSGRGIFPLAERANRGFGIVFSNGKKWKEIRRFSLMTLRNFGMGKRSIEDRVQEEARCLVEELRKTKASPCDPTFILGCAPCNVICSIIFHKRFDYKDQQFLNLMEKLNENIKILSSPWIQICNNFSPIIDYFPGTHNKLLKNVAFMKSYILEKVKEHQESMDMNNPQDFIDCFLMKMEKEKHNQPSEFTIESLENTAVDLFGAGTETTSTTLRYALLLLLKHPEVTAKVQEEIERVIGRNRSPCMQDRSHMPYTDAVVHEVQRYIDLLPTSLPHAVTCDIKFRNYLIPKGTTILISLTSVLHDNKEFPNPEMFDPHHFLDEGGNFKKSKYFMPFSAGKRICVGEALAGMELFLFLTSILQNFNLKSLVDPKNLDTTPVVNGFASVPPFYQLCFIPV
# procedureSummary: CYP2C9 activity assay in human liver microsomes, substrate diclofenac
# Assay type: in vitro ADME
# conditionSummary: probe diclofenac, test compound 1 μM, 37° C. 10 min, read-out: Inhibition rate (%) against CYP2C9 Enzyme
Overview of recorded inhibition at 10 min, 1 µM for various compounds

CS(=O)(=O)N1CCC2(CC1)CC(CNc1ccc(S(=O)(=O)NC(=O)c3ccc(N4CCN([C@@H]5CCCCc6c(Cl)cccc65)CC4)cc3Oc3cnc4[nH]ccc4c3)cc1[N+](=O)[O-])C2
31%

Ask: I would be grateful if you could share the reported inhibition at 10 min, 1 µM for O=C(NS(=O)(=O)c1ccc(NCC2CC3(CCN(CC(F)(F)F)CC3)C2)c([N+](=O)[O-])c1)c1ccc(N2CCN([C@@H]3CCCCc4c(Cl)cccc43)CC2)cc1Oc1cnc2[nH]ccc2c1 .
Reply: < 30%

Ask: I would be grateful if you could share the reported inhibition at 10 min, 1 µM for O=C(NS(=O)(=O)c1ccc(NCC2CC3(CCN(CCF)CC3)C2)c([N+](=O)[O-])c1)c1ccc(N2CCN([C@@H]3CCCCc4c(Cl)cccc43)CC2)cc1Oc1cnc2[nH]ccc2c1 .
Reply: < 30%

Ask: I would be grateful if you could share the reported inhibition at 10 min, 1 µM for CN1CCC2(CC1)CC(CNc1ccc(S(=O)(=O)NC(=O)c3ccc(N4CCN([C@@H]5CCCCc6c(Cl)cccc65)CC4)cc3Oc3cnc4[nH]ccc4c3)cc1[N+](=O)[O-])C2 .
Reply: < 30%

Ask: I would be grateful if you could share the reported inhibition at 10 min, 1 µM for CC(=O)NCCN1CCC2(CC1)CC(CNc1ccc(S(=O)(=O)NC(=O)c3ccc(N4CCN([C@@H]5CCCCc6c(Cl)cccc65)CC4)cc3Oc3cnc4[nH]ccc4c3)cc1[N+](=O)[O-])C2 .
Reply: 33%

Ask: I would be grateful if you could share the reported inhibition at 10 min, 1 µM for CC(C)(C)OC(=O)N1CCC2(CC1)CC(CNc1ccc(S(=O)(=O)NC(=O)c3ccc(N4CCN([C@@H]5CCCCc6c(Cl)cccc65)CC4)cc3Oc3cnc4[nH]ccc4c3)cc1[N+](=O)[O-])C2 .
Reply: < 30%

Ask: I would be grateful if you could share the reported inhibition at 10 min, 1 µM for O=C(NS(=O)(=O)c1ccc(NCC2CC3(CCN(CC(F)F)CC3)C2)c([N+](=O)[O-])c1)c1ccc(N2CCN([C@@H]3CCCCc4c(Cl)cccc43)CC2)cc1Oc1cnc2[nH]ccc2c1 .
Reply: < 30%

Ask: I would be grateful if you could share the reported inhibition at 10 min, 1 µM for O=C(NS(=O)(=O)c1ccc(NCC2CC3(CCNCC3)C2)c([N+](=O)[O-])c1)c1ccc(N2CCN([C@@H]3CCCCc4c(Cl)cccc43)CC2)cc1Oc1cnc2[nH]ccc2c1 .
Reply: < 30%

Ask: I would be grateful if you could share the reported inhibition at 10 min, 1 µM for CC1(C)CCC(CN2CCN(c3ccc(C(=O)NS(=O)(=O)c4ccc(NCC5CCOCC5)c([N+](=O)[O-])c4)c(Oc4cnc5[nH]ccc5c4)c3)CC2)=C(c2ccc(Cl)cc2)C1 [Venetoclax, reference compound] .
Reply: 49%

Ask: I would be grateful if you could share the reported inhibition at 10 min, 1 µM for O=C(NS(=O)(=O)c1ccc(NCC2CCOCC2)c([N+](=O)[O-])c1)c1ccc(N2CCC3(CC2)CN(C2CCCc4ccccc42)C3)cc1Oc1cnc2[nH]ccc2c1 (stereo not shown) .
Reply: < 30%

---

# testSystem: UniProt:Q07817
# procedureSummary: HTRF BCL-XL/BAK assay (Cisbio)
# conditionSummary: recombinant human Tag1-BCL-XL 2 nM, Tag2-BAK 5 nM
pIC50: −log10 of the molar value.
measurementName: pIC50

O=C(NS(=O)(=O)c1ccc(NCC2CCOCC2)c([N+](=O)[O-])c1)c1ccc(N2CCN(C3CCCCc4c3cccc4[N+](=O)[O-])CC2)cc1Oc1cnc2[nH]ccc2c1 (centres unmarked) [Compound 33]
6.70 to 7.70
C=C(C)c1cccc2c1CCCCC2N1CCN(c2ccc(C(=O)NS(=O)(=O)c3ccc(NCC4CCOCC4)c([N+](=O)[O-])c3)c(Oc3cnc4[nH]ccc4c3)c2)CC1 (centres unmarked) [Compound 50]
5.70 to 6.70
O=C(NS(=O)(=O)c1ccc(NCC2CCOCC2)c([N+](=O)[O-])c1)c1ccc(N2CCN(C3CCCCc4cc(Cl)ccc43)CC2)cc1Oc1cnc2[nH]ccc2c1 (centres unmarked) [Compound 25]
5.70 to 6.70
O=C(NS(=O)(=O)c1cccc([N+](=O)[O-])c1)c1ccc(N2CCN(C3CCCc4cccc(-c5ccc(Cl)cc5)c43)CC2)cc1Oc1cnc2[nH]ccc2c1 (centres unmarked) [Compound 13]
5.70 to 6.70

Ask: For the record O=C(NS(=O)(=O)c1ccc(NCC2CC3(CCOCC3)C2)c([N+](=O)[O-])c1)c1ccc(N2CCN([C@@H]3CCCCc4c(Cl)cccc43)CC2)cc1Oc1cnc2[nH]ccc2c1 [Compound 99] , what value of pIC50 is listed for UniProt:Q07817?
Reply: 6.70 to 7.70

Ask: For the record O=C(NS(=O)(=O)c1ccc(NCC2CCOCC2)c([N+](=O)[O-])c1)c1ccc(N2CCN([C@@H]3CCCCc4c3cccc4[N+](=O)[O-])CC2)cc1Oc1cnc2[nH]ccc2c1 [Compound 73] , what value of pIC50 is listed for UniProt:Q07817?
Reply: 6.70 to 7.70

Ask: For the record CCOC(=O)CCN1CCC2(CC1)CC(CNc1ccc(S(=O)(=O)NC(=O)c3ccc(N4CCN([C@@H]5CCCCc6c(Cl)cccc65)CC4)cc3Oc3cnc4[nH]ccc4c3)cc1[N+](=O)[O-])C2 [Compound 130] , what value of pIC50 is listed for UniProt:Q07817?
Reply: > 7.70

Ask: For the record O=C(NS(=O)(=O)c1cccc([N+](=O)[O-])c1)c1ccc(N2CCN(C3CCCCc4ccccc43)CC2)cc1Oc1cnc2[nH]ccc2c1 (centres unmarked) [Compound 5] , what value of pIC50 is listed for UniProt:Q07817?
Reply: 5.70 to 6.70

Ask: For the record O=C(NS(=O)(=O)c1ccc(NCC2CC3(CCN(CCO)CC3)C2)c([N+](=O)[O-])c1)c1ccc(N2CCN([C@@H]3CCCCc4c(Cl)cccc43)CC2)cc1Oc1cnc2[nH]ccc2c1 [Compound 121] , what value of pIC50 is listed for UniProt:Q07817?
Reply: > 7.70

Ask: For the record CC1(C)CC(CNc2ccc(S(=O)(=O)NC(=O)c3ccc(N4CCN([C@@H]5CCCCc6c(Cl)cccc65)CC4)cc3Oc3cnc4[nH]ccc4c3)cc2[N+](=O)[O-])CCO1 (some centres unmarked) [Compound 102] , what value of pIC50 is listed for UniProt:Q07817?
Reply: 6.70 to 7.70

---

# testSystem: BCL-XL (Homo sapiens, UniProt Q07817)
# Construct: purchased Cisbio 63ADK000CB04PEG
# Sequence (Q07817 whole entry): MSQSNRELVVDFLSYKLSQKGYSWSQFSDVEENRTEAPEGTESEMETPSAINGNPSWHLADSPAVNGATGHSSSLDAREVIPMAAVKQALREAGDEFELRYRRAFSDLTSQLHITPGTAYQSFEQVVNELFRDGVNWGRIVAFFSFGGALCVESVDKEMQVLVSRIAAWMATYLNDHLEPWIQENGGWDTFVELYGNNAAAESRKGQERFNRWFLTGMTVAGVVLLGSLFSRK
# procedureSummary: HTRF BCL-XL/BAK assay (Cisbio)
# Format: binding
# conditionSummary: recombinant human Tag1-BCL-XL 2 nM, Tag2-BAK 5 nM
measurementName: IC50

O=C(NS(=O)(=O)c1ccc(NCC2CC3(COC3)C2)c([N+](=O)[O-])c1)c1ccc(N2CCN([C@@H]3CCCCc4c(Cl)cccc43)CC2)cc1Oc1cnc2[nH]ccc2c1 [Compound 72]
20 to 200 nM
NCCN1CCC2(CC1)CC(CNc1ccc(S(=O)(=O)NC(=O)c3ccc(N4CCN([C@@H]5CCCCc6c(Cl)cccc65)CC4)cc3)cc1[N+](=O)[O-])C2 [Compound 120]
20 to 200 nM

From here, focus on the item given below.
Ask: I would be grateful if you could share the reported IC50 for CC(C)(C)OC(=O)N1CCC2(CC1)CC(CNc1ccc(S(=O)(=O)NC(=O)c3ccc(N4CCN([C@@H]5CCCCc6c(Cl)cccc65)CC4)cc3)cc1[N+](=O)[O-])C2 [Compound 116] .
Reply: > 2000 nM

Reference for the values: patent US20240239792A1
